Tested on: Phosphorylated Ribosomal Protein S6 (RPS6) in THP-1 cells
assay-details: THP-1 RPS6 ELISA Assay
Assay type: cell-based, Human
measurement-conditions: Homo sapiens, 2 hours with compound, then 10 nM MCP-1 for 15 minutes, read-out: THP p-RPS6 ELISA IC50

{"molecule": "CCS(=O)(=O)Nc1cncc(-c2ccc3nc(-c4nc(C)c(C)[nH]4)oc3c2)c1 [Example 63, bis(trifluoroacetate)]", "IC50": "< 5 µM"}

====

Tested on: Phosphorylated Ribosomal Protein S6 (RPS6) in THP-1 cells
assay-details: THP-1 RPS6 ELISA Assay
Assay type: cell-based, Human
measurement-conditions: 2 hours with compound, then 10 nM MCP-1 for 15 minutes, read-out: THP p-RPS6 ELISA IC50

{"mol-smiles": "CN1CCN(S(=O)(=O)Nc2cncc(-c3ccc4nc(-c5nc6ccccc6[nH]5)oc4c3)c2)CC1", "IC50": "< 1000 nM"}
